- ASSAY SYSTEM: ECE-1 (Bos taurus)
- Construct: The entire coding regions from bovine ECE-1; made in house
- Sequence (P42891 with tags, fused parts or gaps A87G/A695G limits assumed): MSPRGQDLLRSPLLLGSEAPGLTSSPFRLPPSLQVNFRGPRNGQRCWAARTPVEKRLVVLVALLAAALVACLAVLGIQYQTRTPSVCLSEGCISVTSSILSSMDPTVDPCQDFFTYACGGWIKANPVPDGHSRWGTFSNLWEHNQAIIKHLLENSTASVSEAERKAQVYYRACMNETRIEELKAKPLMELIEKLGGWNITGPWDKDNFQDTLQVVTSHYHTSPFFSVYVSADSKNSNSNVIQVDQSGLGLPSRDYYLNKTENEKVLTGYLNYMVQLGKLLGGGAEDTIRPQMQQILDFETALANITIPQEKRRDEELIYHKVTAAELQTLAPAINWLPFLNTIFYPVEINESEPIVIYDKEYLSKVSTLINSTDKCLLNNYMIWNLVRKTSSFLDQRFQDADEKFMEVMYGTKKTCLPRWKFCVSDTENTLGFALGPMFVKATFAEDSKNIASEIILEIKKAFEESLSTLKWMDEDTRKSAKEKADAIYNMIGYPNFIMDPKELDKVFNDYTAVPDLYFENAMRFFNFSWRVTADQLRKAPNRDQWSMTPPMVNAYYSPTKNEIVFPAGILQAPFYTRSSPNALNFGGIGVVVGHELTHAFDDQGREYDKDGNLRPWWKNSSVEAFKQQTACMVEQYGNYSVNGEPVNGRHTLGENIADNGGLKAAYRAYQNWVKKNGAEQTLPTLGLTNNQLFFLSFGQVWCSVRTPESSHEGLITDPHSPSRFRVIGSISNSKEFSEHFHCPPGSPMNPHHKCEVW
- TEST SUMMARY: Production of mature ET-1 by 1:1 co-cultures of CHO/ECE-1 and CHO/preproET-1 cells (conversion of exogenous big ET-1)
- Format: cell-based, bovine
QUANTITY KIND: IC50

Task item: // query IC50 value for entry COc1c2c(c(O)c3c1C(O)Cc1cc(CC(C)O)c(C(=O)O)c(O)c1-3)C(=O)c1cccc(O)c1C2=O (stereo not shown)
Reply: ~1000 nM
